Target: human parathyroid hormone receptor 2 (human, UniProt P49190)
Test: cell-based or functional assay
Non-standard residues stand in square brackets, D forms with d. No end group written: not given here. 1Nal = N[C@@H](Cc1cccc2ccccc12)C(=O)O; β3hI = CC[C@H](C)[C@H](N)CC(=O)O; Nle = CCCC[C@H](N)C(=O)O; Aib = CC(C)(N)C(=O)O; βAla = NCCC(=O)O
Assignment: determine reported hPTHR-2 EC50 (nM), luciferase reporter gene assay for the given binders.
Give bare numbers, in nM.

Kindly give each listed record's hPTHR-2 EC50 (nM), luciferase reporter gene assay.
1. [Aib]VSEIQL[Nle]HNLGKHLKS[β3hI]ERVE[1Nal]LRKLLQRVHEF-NH2 [[Aib^1, Nle^8, Lys^16, β-hIle^18, 1-Nal^23, Leu^27, Arg^30, Glu^33] hPTH (1-34)-NH2]
2. SVSEIQL[Nle]HSLGKHLKS[β3hI]ERVE[1Nal]LRKLLQRVHEF-NH2 [[Nle^8, Ser^10, Lys^16, β-hIle^18, 1-Nal^23, Leu^27, Arg^30, Glu^33] hPTH(1-34)-NH2]
3. AVSEIQL[Nle]HNLGKHLN[βAla][Nle]ERVE[1Nal]LRKLLQDVHNF-NH2 [[Ala^1, Nle^8,18, β-Ala^17, 1-Nal^23, Leu^27] hPTH (1-34)-NH2]

Result:
6
8
89
